assay-explanation: Pharmacokinetics following peroral administration to dogs
Parameters: species or system beagle dogs
reported-conditions: dog, in vivo, po; 2 mg/kg peroral, fed male beagle dogs, 4% Soluplus in SGF pH 2.0
measure: Cmax (µg/mL)
Your answer is read as µg/mL, so omit the unit and give the number.

CCCn1c(=O)c2[nH]c(-c3cnn(Cc4cccc(C(F)(F)F)c4)c3)nc2n(CC)c1=O.O=C(O)/C=C/C(=O)O has a reported Cmax of 0.148

---

assay-explanation: Pharmacokinetics following peroral administration to dogs
Design: species or system beagle dogs
reported-conditions: dog, in vivo, po; 10 mg/kg peroral, fed male beagle dogs, 4% Soluplus in SGF pH 2.0
measure: half-life

CCCn1c(=O)c2[nH]c(-c3cnn(Cc4cccc(C(F)(F)F)c4)c3)nc2n(CC)c1=O.O=C(O)/C=C/C(=O)O has a reported half-life of 6.5 h
